Where these numbers come from: PubChem BioAssay AID430

For each record, write down the corresponding cytotoxicity.
assay: cytotoxicity in HPDE-C7 cells, cell-based, fluorescence, HTS (AID 430); details: HPDE-C7 pancreatic duct cells viability, at 10 µM, active compounds read high;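 also: cells exposed to compound for 48 hours before viability readout; 0% = vehicle and 100% = reference cytotoxic drug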
About 1,100 (1.7%) of roughly 63,000 compounds were called active. The list comes from a sample in which actives are over-represented; it also holds close analogues and randomly drawn compounds. Measured potencies and affinities stand elsewhere.
Answers are plain numbers, in %.

// known answers, use as guide
MOLECULE	cytotoxicity, %
CS(=O)(=O)Nc1cccc2cccnc12	6.6
CSc1ccc(C2C(C#N)=C(N)Oc3c2ccc(=O)c2c(C)oc(C)c32)cc1 (stereo not given)	-8.9
O=C(C1CCN(S(=O)(=O)c2cccc3cccnc23)CC1)N1CCCC1	-7.2

Batch: cytotoxicity for all items listed.
1. O=S(=O)(Nc1cccc2cccnc12)c1ccc(S(=O)(=O)N2CCCC2)cc1
2. Cc1oc(C)c2c(=O)ccc3c(c12)OC(N)=C(C#N)C3c1ccccc1 (stereo not given)

# output
1. 57.1
2. -51.8

* * *

assay: cytotoxicity in HPDE-C7 cells, cell-based, fluorescence, HTS (AID 430); details: HPDE-C7 pancreatic duct cells viability, at 10 µM
In all, about 63,000 compounds went through this assay and about 1,100 (1.7%) were called active. No stated cut-off is given here; in the data, active means cytotoxicity above about 50%; inactive means the rest. The full list was thinned out, with actives kept by preference. Entries with a potency or affinity are not part of this list.
Field 'call' accepts active, inactive

CCOc1ccccc1-n1nnnc1SCC(=O)Nc1cc2oc3ccccc3c2cc1OC inactive
COc1ccc(CN2CN(C(C)C)CSC2=S)cc1 active
CCc1c(O)nc(SCC(=O)Nc2ccccc2)n(-c2ccccc2)c1=O inactive
CCSc1nnc(NC(=O)c2cnccn2)s1 inactive
COC(=O)c1c(C)oc(C)c(C(=O)OC)c1=O inactive

# input GET /call?item= Cc1onc(-c2ccccc2Cl)c1C(=O)NCc1nc(-c2ccccc2)no1 returns the recorded outcome of this test.
# output inactive

# input GET /call?item= COc1ccc(Cn2c(C)ccc2C)cc1 returns the recorded outcome of this test.
# output inactive

# input GET /call?item= COc1cc(C2Nc3cccc4cccc(c34)N2)ccc1OC(C)=O returns the recorded outcome of this test.
# output inactive

* * *

For each record, write down the corresponding cytotoxicity.
test: cytotoxicity in HPDE-C7 cells, cell-based, fluorescence, HTS (AID 430); details: HPDE-C7 pancreatic duct cells viability, at 10 µM, active compounds read high
Screen size: about 63,000 compounds; about 1,100 (1.7%) were called active. This is one part of a sample in which actives are shown more often than they occur. Entries with a potency or affinity are not part of this list.
Answers are plain numbers, in %.

// known answers, use as guide
MOLECULE	MEASUREMENT_UNITS	OBSERVED_RESULT
O=C(O)CCC1COc2ccccc2O1 (stereo not drawn)	%	-3.3
COC(=O)Cn1c2ccc(F)cc2c2nc(C)sc21	%	-12.3
COc1ccc2cc3cc(C(=O)Nc4ccc5c(c4)OCCO5)oc3nc2c1	%	2
O=S(=O)(c1ccc(OCC(O)CNCc2ccco2)c(Cl)c1)N1CCOCC1 (stereo not drawn)	%	-9.8
N#C/C(C(=O)Oc1ccccc1)=C1\C=CC=CN1	%	1.2
COc1cccc(C(=O)c2sc(NC(C)C)nc2N)c1	%	70.8

Batch: cytotoxicity for all items listed.
1. Oc1c(C(c2cccs2)N2CCN(c3ccccc3)CC2)sc2ncnn12 (stereo not drawn)
2. CC(C)(C)c1ccc(C(O)CCCN2CCC(C(O)(c3ccccc3)c3ccccc3)CC2)cc1 (stereo not drawn)
3. Cc1cccc(N2CCN(c3nnnn3-c3ccccc3)CC2C)c1 (stereo not drawn)
4. CCCn1c(NC(=O)c2cccc(S(=O)(=O)N3CCCC3)c2)nc2ccccc21
5. Cc1ccc(C(=O)Nc2nc3ccccc3n2CCN2CCCC2)cc1
6. OC(CCN1CCCC1)(c1ccccc1)C1CCCCC1 (stereo not drawn)
7. CCC1CCCCN1C(=O)CSc1nnc(-c2ccc(Cl)cc2)o1 (stereo not drawn)

# output
1: -10; 2: 118; 3: 0.6; 4: 61.9; 5: 1.6; 6: 8.5; 7: 1.2

Batch: cytotoxicity for all items listed.
1. CCCn1c(NC(=O)c2ccc(C)cc2)nc2ccccc21
2. COc1ccc(C(C(=O)OC(C)CN(C)C)c2ccccc2)cc1 (stereo not drawn)
3. CCC(C(=O)c1ccc(O)cc1)c1ccccc1 (stereo not drawn)
4. Cc1cccnc1NCC(O)COc1ccccc1 (stereo not drawn)
5. O=C(CS(=O)(=O)c1ccccc1)N1CCCCCC1
6. CC1Cc2ccccc2N1C(=O)Cn1nnc(-c2ccccc2NC(=O)C2CCC2)n1 (stereo not drawn)
7. O=C(OCc1cc(-c2ccccc2)no1)c1ccc2ccccc2n1

# output
-34.1
4.3
9.4
-2.3
-5.2
-11.1
-17.4

Batch: cytotoxicity for all items listed.
1. Nc1nnc(SCc2ccccc2Cl)s1
2. Cn1c(Cn2c(=O)sc3ccccc32)nnc1SCc1ccc(F)cc1
3. CCN1C(=O)CC(N2CCC(C(=O)OC)CC2)C1=O (stereo not drawn)

# output
8.4
-3.2
-6.2

* * *

test: cytotoxicity in HPDE-C7 cells, cell-based, fluorescence, HTS (AID 430); details: HPDE-C7 pancreatic duct cells viability, at 10 µM, active compounds read high
The whole screen tested about 63,000 compounds, of which about 1,100 (1.7%) were called active. The full list was thinned out, with actives kept by preference. Potency and affinity values are given separately.
The recorded cytotoxicity of each item maps onto one of these classes: interval 1: < -10%; interval 2: ≥ -10% and < 40%; interval 3: ≥ 40%

COMPOUND	ASSIGNED_LABEL
COc1cccc(N2CCN(Cc3coc4c(Cl)cc(Cl)cc4c3=O)CC2)c1	interval 3

# input Looking at Cc1nc2sc3c(c2c2nnc(SCC(=O)NCc4ccco4)n12)CCCC3 , which class would you pick?
# output interval 2

# input Looking at S=C(N=Nc1ccccc1)NNc1ccccc1 , which class would you pick?
# output interval 3

# input Looking at Cc1ccc2occ(CN3CCN(c4ccccc4)CC3)c(=O)c2c1 , which class would you pick?
# output interval 1

# input Looking at CCc1nnc(NC(=O)c2ccc(S(=O)(=O)N3CCCCC3C)cc2)s1 (stereo unspecified) , which class would you pick?
# output interval 1

# input Looking at Cc1ccc(-n2c(SCC(=O)Nc3ccc4c(c3)OCO4)nnc2-c2ccoc2C)cc1 , which class would you pick?
# output interval 2

# input Looking at COc1ccccc1NS(=O)(=O)c1ccc(NC(C)=O)cc1 , which class would you pick?
# output interval 2

# input Looking at COc1cc(CN2CCSCC2)cc(OC)c1OC , which class would you pick?
# output interval 2

# input Looking at CCCC(=O)Nc1nnc(-c2ccc(Cl)s2)o1 , which class would you pick?
# output interval 2

* * *

experiment: cytotoxicity in HPDE-C7 cells, cell-based, fluorescence, HTS (AID 430); settings: HPDE-C7 pancreatic duct cells viability, at 10 µM;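 also: cells exposed to compound for 48 hours before viability readout; 0% = vehicle and 100% = reference cytotoxic drug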
Hit rate of the full screen: of about 63,000 compounds, about 1,100 (1.7%) were called active. Rule as the data show it: active = cytotoxicity above about 50%; inactive = the rest. The sample holds actives, similar compounds and a random draw of the others, so the mix is not that of the screen. Results with a measured potency or affinity are listed apart.
Field 'call' accepts class 1 = active, class 0 = inactive

As a guide, the following entries are already answered.
COMPOUND	ASSIGNED_LABEL
CC(=O)Nc1ccc(S(=O)(=O)N2CCN(c3cc(C)ccc3C)CC2)cc1	class 0
O=C1c2ccccc2NC(c2ccccn2)N1c1ccc(Cl)cc1 (configuration not stated)	class 0

Let's switch to this compound now.
# input GET /call?item= CCC(C)Oc1cccc(OCCCCN2C(=O)NC(C)(C)C2=O)c1 (configuration not stated) returns the recorded outcome of this test.
# output class 0

* * *

assay: cytotoxicity in HPDE-C7 cells, cell-based, fluorescence, HTS (AID 430); settings: HPDE-C7 pancreatic duct cells viability, at 10 µM, active compounds read high;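 also: cells exposed to compound for 48 hours before viability readout; 0% = vehicle and 100% = reference cytotoxic drug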
The whole screen tested about 63,000 compounds, of which about 1,100 (1.7%) were called active. Shown is part of a subset that was picked to be rich in actives. Entries with a potency or affinity are not part of this list.
READOUT_NAME: cytotoxicity (%)
Give bare numbers, in %.

// known answers, use as guide
CC(C)Cn1c(CN(C)Cc2ccccc2)nc2c1c(=O)n(C)c(=O)n2C -6.6
CC1(C)CC(=O)C(C=NC2CCCCC2)=C(O)C1 -6.9
CCOC(=O)c1ccc(Oc2nc(SC)nc(N(C)C)n2)cc1 -23.6
COc1cc(OC)nc(NC(=O)COC(=O)C2CCCCC2)n1 8.7
O=C(NCc1ccc(Cl)c(Cl)c1)c1ccco1 -4.6

Here is the next item to consider.
# input Which cytotoxicity reading was recorded for the compound CCOC(=O)c1ccc(Oc2nc(NC)nc(SC)n2)cc1 ?
# output -15.9

* * *

experiment: cytotoxicity in HPDE-C7 cells, cell-based, fluorescence, HTS (AID 430); conditions: HPDE-C7 pancreatic duct cells viability, at 10 µM;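 also: cells exposed to compound for 48 hours before viability readout; 0% = vehicle and 100% = reference cytotoxic drug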
In all, about 63,000 compounds went through this assay and about 1,100 (1.7%) were called active. Rule as the data show it: active = cytotoxicity above about 50%; inactive = the rest. Many of the other results were omitted from the sample, so actives are more common in it than they were. Potency and affinity values are given separately.
Field 'call' accepts t = active, f = inactive

As a guide, the following entries are already answered.
COMPOUND	ASSIGNED_LABEL
COc1ccc(NC(=O)c2cccc(-n3cnnn3)c2)cc1	f
COc1cccc(-c2nc(=S)c3c(n2Cc2ccco2)CCCC3)c1	f
O=C(Cc1c(O)c2ccccc2[nH]c1=O)NCc1cccc(F)c1	f

# input GET /call?item= Cc1ccc(Nc2nc(N)nc(CN3CCN(c4ccccc4)CC3)n2)cc1Cl returns the recorded outcome of this test.
# output t

# input GET /call?item= Nc1nc(NC(=O)c2cccnc2)nn1-c1ccccc1 returns the recorded outcome of this test.
# output f

# input GET /call?item= Cc1cnc(C(=O)Nc2ccc(N3CCOCC3)cc2)cn1 returns the recorded outcome of this test.
# output f

# input GET /call?item= COC(=O)C1=C(C)NC(=O)CC1c1ccc(C(=O)OC)cc1 (stereo not drawn) returns the recorded outcome of this test.
# output f

# input GET /call?item= CCOC(=O)COc1cccc2c(=O)n(CC(=O)NCc3ccc4c(c3)OCO4)ccc12 returns the recorded outcome of this test.
# output t
